# tested on: Neuraminidase (Influenza A virus, UniProt B4URF0)
# Sequence (B4URF0 whole entry): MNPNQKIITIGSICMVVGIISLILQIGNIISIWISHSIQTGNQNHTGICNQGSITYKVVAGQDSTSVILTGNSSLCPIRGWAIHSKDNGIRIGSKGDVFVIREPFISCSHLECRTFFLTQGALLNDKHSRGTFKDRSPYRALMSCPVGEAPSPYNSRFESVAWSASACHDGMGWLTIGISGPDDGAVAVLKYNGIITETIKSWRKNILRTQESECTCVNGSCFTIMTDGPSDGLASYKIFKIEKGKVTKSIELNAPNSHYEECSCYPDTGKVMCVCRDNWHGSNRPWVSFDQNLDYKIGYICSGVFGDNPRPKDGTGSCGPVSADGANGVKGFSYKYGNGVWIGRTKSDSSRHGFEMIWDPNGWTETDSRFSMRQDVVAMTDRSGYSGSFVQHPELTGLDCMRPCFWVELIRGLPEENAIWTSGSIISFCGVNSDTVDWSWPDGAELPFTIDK
# assay explanation: Inhibition of Influenza A virus H3N2 neuraminidase using MUNANA as substrate preincubated for 30 mins measured after 2 hrs
Define the label as met when IC50 is strictly less than 10 µM and as not met in all remaining cases.

q: Strictly below 10 µM in IC50? CC(=O)N[C@H]1[C@H]([C@H](O)[C@H](O)CO)OC(SCCCCCCCCCCCCSC2(C(=O)O)C[C@H](NC(=N)N)[C@@H](NC(C)=O)[C@H]([C@H](O)[C@H](O)CO)O2)(C(=O)O)C[C@@H]1NC(=N)N (stereo partly specified)
a: not met

q: Strictly below 10 µM in IC50? CC(=O)N[C@H]1[C@H]([C@H](O)[C@H](O)CO)OC(SCCOCCOCCOCCSC2(C(=O)O)C[C@H](N)[C@@H](NC(C)=O)[C@H]([C@H](O)[C@H](O)CO)O2)(C(=O)O)C[C@@H]1N (stereo partly specified)
a: not met

q: Strictly below 10 µM in IC50? CC(=O)N[C@H]1[C@H]([C@H](O)[C@H](O)CO)OC(SCCCCCCSC2(C(=O)O)C[C@H](NC(=N)N)[C@@H](NC(C)=O)[C@H]([C@H](O)[C@H](O)CO)O2)(C(=O)O)C[C@@H]1NC(=N)N (stereo partly specified)
a: met

q: Strictly below 10 µM in IC50? CC(=O)N[C@H]1[C@H]([C@H](O)[C@H](O)CO)OC(SCCCCCCS)(C(=O)O)C[C@@H]1N (stereo partly specified)
a: not met

q: Strictly below 10 µM in IC50? CC(=O)N[C@H]1[C@H]([C@H](O)[C@H](O)CO)OC(SCCOCCOCCOCCOCCSC2(C(=O)O)C[C@H](N)[C@@H](NC(C)=O)[C@H]([C@H](O)[C@H](O)CO)O2)(C(=O)O)C[C@@H]1N (stereo partly specified)
a: not met
